test system: NCI-H23 lung; assay: NCI tumour cell line growth inhibition, 48 h; in the data active = GI50 below about 0.43 µM; inactive = the rest
*1 amine or outer side, *2 acyl side, *3 side chain or, on linkers, in order; H or OH if unused. Where a SMILES comes first, the peptide text is derived from it. Residues, ends and D or L forms follow the SMILES beside them. Bridges are numbered along the chain shown (N, C = ends). [ ]: non-standard residue; d: D form. *: point of attachment. Adda = CO[C@@H](Cc1ccccc1)[C@@H](C)/C=C(C)/C=C/[C@H](N[*:1])[C@H](C)C(=O)[*:2]; dAsp(3S-Me) = C[C@H](C(=O)[*:3])[C@@H](N[*:1])C(=O)[*:2]; d(γGlu) = O=C(O)[C@@H](CCC(=O)[*:2])N[*:1]; NMeDha = C=C(NC)C(=O)O; Boc = CC(C)(C)OC(=O)*
Returns: one label drawn from active, inactive

Consider the following illustrative entries.
| molecule | group |
| --- | --- |
| CN1CCc2c(c3ccccc3c3ccccc23)C1 | inactive |
| CC(=O)O[C@H]1CCC2(C)C(=CCC3C2CCC2(C)/C(=N/OC(=O)c4ccc(N(CCCl)CCCl)cc4)CCC32)C1 (stereo partly specified) | inactive |
| CCN1CCN(c2cc(C)nc(N(CCNc3ccnc4cc(Cl)ccc34)Cc3ccc4c(c3)OCO4)n2)CC1 | inactive |
| CCOc1nc(-c2ccccc2)cc2c(O)c(C(=O)N/N=C/c3ccc(O)cc3O)[nH]c(=O)c12 | inactive |
| C=C1C(=O)N[C@H](C)C(=O)N[C@@H](CC(C)C)C(=O)N[C@@H](C(=O)O)[C@H](C)C(=O)N[C@@H](CCCN=C(N)N)C(=O)N[C@@H](/C=C/C(C)=C/[C@H](C)[C@H](Cc2ccccc2)OC)[C@H](C)C(=O)N[C@@H](C(=O)O)CCC(=O)N1C (R[Adda][d(γGlu)][NMeDha][dA]L[dAsp(3S-Me)]-OH; lactam N-7) | inactive |

Query block: Please state the recorded outcome for this molecule: O=C1c2ccccc2-c2nnc(-c3ccc(Br)cc3)cc21
Result block: inactive

Query block: // query: CN(C)CCCOc1ccc(OCCCN(C)C)c2c1C(=O)c1ccccc1C2=O
Result block: inactive

Query block: // repeat for Fc1cnc(NC2CC2)nc1-c1cnc2ccc(N3CCOCC3)cn12 and report
Result block: active

Query block: Repeat for the following molecule: CCn1cc(C(=O)O)c(=O)c2cc(F)c(N3CCN(S(=O)(=O)c4ccc(Cl)cc4)CC3)cc21
Result block: inactive

Query block: Repeat with CCCS(=O)(=O)Nc1ccc(F)c(C(=O)c2c[nH]c3ncc(Cl)cc23)c1F
Result block: inactive

Query block: Item: COC(=O)CNC(=O)C(Cc1ccccc1)NC(=O)C(Cc1ccccc1)NC(=O)OC(C)(C)C (stereo not drawn) (Boc-Phe-Phe-Gly-OMe; configuration not given here)
Result block: inactive

---

Catalogue of compounds with associated TGI
test system: NCI-H23 lung; assay: NCI tumour cell line growth inhibition, 48 h

| compound | TGI |
| --- | --- |
| CCn1cc(C(=O)O)c(=O)c2cc(F)c(N3CCN(S(=O)(=O)c4ccc(Cl)cc4)CC3)cc21 | 7.15 µM |

Query block: Fill blank: measured TGI of the compound C=C1OC(=O)[C@]2([C@@H](/C=C/C)C=CC(=O)[C@H]2O)[C@@H]1O is ____.
Result block: > 100 µM

Query block: Now try CC12OC1(C)C1C(=O)OCC1C2=O (stereo not drawn) .
Result block: > 100 µM

---

tested on: DU-145 prostate; test: NCI tumour cell line growth inhibition, 48 h
# reported TGI; entries follow

| molecule | TGI |
| --- | --- |
| COc1cc(OC)cc(-n2c(N)c(C#N)c3ccc([N+](=O)[O-])cc3c2=O)c1 | 47.1 µM |
| CN(Cc1cnc2c(n1)C(N)=NN(N)N2)c1ccc(C(=O)NC(CCP(=O)(O)O)C(=O)O)cc1 (stereo not given) | > 100 µM |
| CN(C)CCCOc1ccc(OCCCN(C)C)c2c1C(=O)c1ccccc1C2=O | 11.8 µM |
| C(#Cc1cnccn1)/C=C\C#Cc1cnccn1 | 72 µM |

Query block: Find the recorded TGI belonging to CCCC1C(CC)C(NC)C(C#N)(C#N)C1(C#N)C#N (stereo not given) and report it.
Result block: 27.2 µM

---

# key: entry, value: log10 of TGI
system: SK-MEL-5 melanoma; experiment: NCI tumour cell line growth inhibition, 48 h
Please note: log10 values; quantity TGI; unit µM.

These solved cases illustrate the format of a correct answer.
| substance_smiles | log10 of TGI |
| --- | --- |
| CN(C)CCCOc1ccc(OCCCN(C)C)c2c1C(=O)c1ccccc1C2=O | 0.55 |
| COc1ccc(SCc2cc(OC)c(OC)c(OC)c2)cc1OC | 1.54 |
| COc1cc(C(=O)NC(CCN)(c2ccccc2)c2ccccc2)cc(OC)c1OC | 1.26 |
| Cc1cc2[nH]c(Cl)c(/C=C3\C(=O)Nc4ccccc43)c2cc1O | 1.09 |

Query block: Please look up its log10 of TGI: CC(C)[C@]12O[C@H]1[C@@H]1O[C@@]13[C@@]1(C)CCC4=C(COC4=O)[C@@H]1C[C@@H]1O[C@@]13C2=O
Result block: -1.51

---

system: NCI-H460 lung; assay: NCI tumour cell line growth inhibition, 48 h
parameter_measured: TGI

Worked examples, 8 molecules total:
| molecule | TGI |
| --- | --- |
| Nc1nc(/C=C\c2ccc([N+](=O)[O-])cc2)nc(N2CCN(c3ccccc3)CC2)n1 | > 100 µM |
| CC(CC[C@@H](C)C1CCC2[C@@H]3CC(O)C4CC(O)[C@@H](O)C[C@]4(C)C3CC[C@@]21C)C(C)(C)C (some centres undefined) | > 100 µM |
| C/C(=N\O)c1ccc(Nc2nc3ccccc3c3occc23)cc1 | 4.34 µM |
| CN1CCN([C@H]2C[C@H]3[C@@H]4CC=C5C[C@@H](N6CCCC6)CC[C@]5(C)[C@H]4CC[C@]3(C)[C@H]2O)CC1 | > 100 µM |
| CCN(CC)C(=O)C[n+]1c2ccccc2n2cc(N)ccc21 | > 100 µM |
| [N-]=[N+]=Nc1ccccc1Oc1ccccc1 | > 100 µM |
| O=C(O)/C(=C/C(=O)c1ccc(Cl)cc1)NNc1ccc([N+](=O)[O-])cc1[N+](=O)[O-] | > 100 µM |
| O=C(Cn1ccnc1[N+](=O)[O-])c1ccccc1 | > 100 µM |

Query block: Request - read-out TGI | tested on NCI-H460 lung | molecule Nc1cc(-c2ccccc2)nn1-c1nsc2ccccc12
Result block: > 100 µM

Query block: And then O=c1[nH]c(=O)n(C2CC(O)C(CO)O2)c2nc3cc4ccccc4cc3nc12 (centres undefined) , what is it?
Result block: > 100 µM

Query block: And then O=C(N/N=C/c1ccccc1O)c1ccccc1O , what is it?
Result block: > 100 µM

Query block: And then CCOC(=O)C1=C(NC(C)(C)C)OC/C1=N\NC(=O)Cc1ccccc1 , what is it?
Result block: > 100 µM

Query block: # repeat for CCN(CC)C(=S)N/N=C(\C)c1cccc(C)n1
Result block: 0.95 µM

Query block: What do you get for COc1cc(C[C@@H](C)N)cc(OC)c1 ?
Result block: > 100 µM

Query block: Lookup Nc1nc(-c2ccccc2)c(Cl)c(-c2cc(Cl)ccc2O)n1
Result block: 99.3 µM

Query block: Follow-up item: COc1cccc(/C=C2\CCC(CCN(C)C)(C3=CCCC3)C2=O)c1 (centres undefined)
Result block: 29.9 µM

Query block: Next record, please: CCc1cccc(C)c1NC(=O)C1=C(C)NC(C)=C(C(=O)Nc2c(C)cccc2CC)C1c1ccc([N+](=O)[O-])cc1
Result block: > 100 µM

Query block: Param item: COc1cc(C2SC(N)=Nc3c2c(C)nn3C(=O)c2ccc(Cl)cc2)cc(OC)c1OC (centres undefined)
Result block: > 10 µM

Query block: Same again, this time with CN(C)N=Nc1ccccc1
Result block: > 100 µM

Query block: Try CN1C2CCC1CN(CCOC(c1ccc(F)cc1)c1ccc(F)cc1)C2 next.
Result block: 60.6 µM

---

test system: SK-MEL-2 melanoma; assay: NCI tumour cell line growth inhibition, 48 h
parameter_measured: TGI

# annotated cases, reported TGI shown
| molecule | TGI |
| --- | --- |
| O=C1CC(=O)NC(=NN2C(=O)CSC2c2ccccc2)N1 (stereo not drawn) | > 100 µM |
| COc1cc2ncn(-c3cc(O[C@H](C)c4ccccc4Cl)c(C(N)=O)s3)c2cc1OC | 5.02 µM |
| CC1=NN(c2nc(N)nc(C(C#N)C(=O)c3cc4c(cc3Cl)Sc3nccn3S4(=O)=O)n2)C(C)(C)C1 (stereo not drawn) | 53.7 µM |
| C=CC1(CC)/C(=N\O)C(CC)(CC)C(=O)N1O (stereo not drawn) | > 100 µM |
| OC1(c2ccccc2)c2ccccc2NC2=NCCN21 (stereo not drawn) | > 100 µM |
| CN(Cc1cnc2c(n1)C(N)=NN(N)N2)c1ccc(C(=O)NC(CCP(=O)(O)O)C(=O)O)cc1 (stereo not drawn) | > 100 µM |
| COC1CC(OC2C(C)OC(OC3C(C)OC(OC4C(C)OC(O[C@H]5CC[C@@]6(C)C(=CC[C@]7(O)[C@@H]6C[C@@H](OC(=O)/C=C(\C)C(C)C)[C@@]6(C)[C@]7(O)CC[C@@]6(O)C(C)=O)C5)CC4OC)CC3OC)CC2OC)OC(C)C1O (stereo partly drawn) | > 12.5 µM |
| CN1C(=O)CC2CCCN2C1=O (stereo not drawn) | > 100 µM |

Query block: Quick check: TGI on SK-MEL-2 melanoma, item CCOC(=O)C1(C)CCc2sc(N)c(C#N)c21 (stereo not drawn) ?
Result block: > 100 µM

Source of measurements: PubChem BioAssay (NCI)
